Reference for the values: patent US10975056B2

Listed here are compounds together with their documented EC50.
test system: erythroid progenitor cells (EPCs); assay: Fetal hemoglobin (HbF) ELISA in day 7 erythroid progenitor cells; assay type: cell-based, human; settings: Homo sapiens, Erythroid progenitor cell, HbF ELISA, day 7 EPCs, 5 days; read-out: EPC ELISA (pEC50 category) (converted);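 further: for fetal hemoglobin induction normalized to vehicle-treated cells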
PROPERTY: EC50

compound="CCc1c(C#N)c(SC(C(N)=O)c2ccccc2)nc(N2CCC[C@H](NC)C2)c1C#N (stereo partly drawn)" experimental_result="< 316 nM"
compound=CCc1c(C#N)c(S[C@@H](C(N)=O)c2ccc(OC)cc2)nc(N2CC[C@H](O)C2)c1C#N experimental_result="< 316 nM"
compound=CCc1c(C#N)c(SCc2ccc3c(c2)CCN(C(C)=O)C3)nc(N(C)C)c1C#N experimental_result="1000 to 31600 nM"

---

Measured EC50 of individual entries
tested on: erythroid progenitor cells (EPCs); assay: Fetal hemoglobin (HbF) ELISA in day 7 erythroid progenitor cells; format: cell-based, human; conditions: Homo sapiens, Erythroid progenitor cell, HbF ELISA, day 7 EPCs, 5 days; read-out: EPC ELISA (pEC50 category) (converted);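 further: for fetal hemoglobin induction normalized to vehicle-treated cells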
PROPERTY: EC50

molecule="CCc1c(C#N)c(SC(C(N)=O)c2ccccc2)nc(N2CCC(CN3CCN(C)CC3)CC2)c1C#N (centres unmarked)" experimental_result="< 0.316 µM"
molecule="CCc1c(C#N)c(SC(C(N)=O)c2ccccc2)nc(N2CCC3(CNC3)C2)c1C#N (centres unmarked)" experimental_result="1 to 31.6 µM"
molecule=CCc1c(C#N)c(SCc2ccc(CNC(=O)CO)cc2)nc(N2CCCN(C)CC2)c1C#N experimental_result="< 0.316 µM"
molecule="CCc1c(C#N)c(SC(C(N)=O)c2ccccc2)nc(N2CCCN(CC)CC2)c1C#N (centres unmarked)" experimental_result="< 0.316 µM"
molecule=CCc1c(C#N)c(SCc2ccc(CC(=O)NCCO)cc2)nc(N(C)C)c1C#N experimental_result="1 to 31.6 µM"

---

tested on: erythroid progenitor cells (EPCs); assay: Fetal hemoglobin (HbF) ELISA in day 7 erythroid progenitor cells; assay type: cell-based, human; settings: Homo sapiens, Erythroid progenitor cell, HbF ELISA, day 7 EPCs, 5 days; read-out: EPC ELISA (pEC50 category) (converted);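 further: for fetal hemoglobin induction normalized to vehicle-treated cells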
Reported EC50 values follow for various compounds
PROPERTY: EC50

compound=CCc1c(C#N)c(SCc2ccc(CNC(=O)CCN)cc2)nc(N(C)C)c1C#N experimental_result="> 31.6 µM"
compound="CCc1c(C#N)c(SC(C(N)=O)c2ccccc2)nc(N2CCC3(CCCN(C)C3)CC2)c1C#N (stereo not shown)" experimental_result="< 0.316 µM"
compound=CCc1c(C#N)c(SCc2ccc(CNC(=O)[C@@H](C)N)cc2)nc(N2CCCN(C)CC2)c1C#N experimental_result="> 31.6 µM"
compound="CCc1c(C#N)c(SC(C(N)=O)c2ccccc2)nc(N2CCC(N3CCN(C)CC3)CC2)c1C#N (stereo not shown)" experimental_result="< 0.316 µM"

---

tested on: erythroid progenitor cells (EPCs); assay: Fetal hemoglobin (HbF) ELISA in day 7 erythroid progenitor cells; assay type: cell-based, human; conditions: Homo sapiens, Erythroid progenitor cell, HbF ELISA, day 7 EPCs, 5 days; read-out: EPC ELISA (pEC50 category) (converted);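 further: for fetal hemoglobin induction normalized to vehicle-treated cells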
PROPERTY: EC50

compound="CCc1c(C#N)c(SC(C(N)=O)c2ccccc2)nc(N2CCC(C3CCNC3)CC2)c1C#N (centres unmarked)" property=EC50 experimental_result="316 to 1000 nM"
compound="CCc1c(C#N)c(SC(C(N)=O)c2ccccc2)nc(N(C)CC(=O)N2C[C@@H](O)[C@H](O)C2)c1C#N (some centres unmarked)" property=EC50 experimental_result="1000 to 31600 nM"
compound="CCc1c(C#N)c(SC(C(N)=O)c2ccccc2)nc(N2CCCN(CC(C)(C)O)CC2)c1C#N (centres unmarked)" property=EC50 experimental_result="< 316 nM"
compound="CCc1c(C#N)c(SC(C(N)=O)c2ccccc2)nc(N2CCC(NCC3(C)CCC3)CC2)c1C#N (centres unmarked)" property=EC50 experimental_result="< 316 nM"
compound="CCc1c(C#N)c(NC)nc(SC(C(N)=O)c2ccccc2)c1C#N (centres unmarked)" property=EC50 experimental_result="1000 to 31600 nM"
compound=CCc1c(C#N)c(N)nc(S[C@@H](C(N)=O)c2ccccc2)c1C#N property=EC50 experimental_result="> 31600 nM"
compound="CCc1c(C#N)c(SC(C(N)=O)c2ccccc2)nc(N2CCC(NC(=O)C(C)(C)N)CC2)c1C#N (centres unmarked)" property=EC50 experimental_result="< 316 nM"
compound="CCc1c(C#N)c(SC(C(N)=O)c2ccccc2)nc(N2CCC(NCC(C)(C)C)C(F)C2)c1C#N (centres unmarked)" property=EC50 experimental_result="< 316 nM"
compound="CCc1c(C#N)c(SC(C(N)=O)c2ccc(C)cn2)nc(N(C)C)c1C#N (centres unmarked)" property=EC50 experimental_result="1000 to 31600 nM"
compound="CCc1c(C#N)c(SC(C(N)=O)c2ccccc2)nc(N2CCC(O)(C(N)=O)CC2)c1C#N (centres unmarked)" property=EC50 experimental_result="1000 to 31600 nM"
compound="CCNCCN(C)c1nc(SC(C(N)=O)c2ccccc2)c(C#N)c(CC)c1C#N (centres unmarked)" property=EC50 experimental_result="< 316 nM"
compound="CCc1c(C#N)c(SC(C(N)=O)c2ccccc2)nc(N2CCO[C@H](CNCC(C)(C)C)C2)c1C#N (some centres unmarked)" property=EC50 experimental_result="< 316 nM"
compound="CCc1c(C#N)c(SCc2ccc(CN)cc2)nc(N2CCC(N3CCCC3)CC2)c1C#N [Example 68, 2,2,2-trifluoroacetate]" property=EC50 experimental_result="> 31600 nM"
compound="CCc1c(C#N)c(SC(C(N)=O)c2cc(C)ccn2)nc(N2CCCN(C)CC2)c1C#N (centres unmarked)" property=EC50 experimental_result="316 to 1000 nM"
compound="CCc1c(C#N)c(SC(C(N)=O)c2ccccc2)nc(N(C)CCNCC(C)(C)C)c1C#N (centres unmarked)" property=EC50 experimental_result="< 316 nM"
compound=CCc1c(C#N)c(SCc2ccc(N(C)S(C)(=O)=O)cc2)nc(N(C)CCN)c1C#N property=EC50 experimental_result="< 316 nM"
compound="CCc1c(C#N)c(SC(C(N)=O)c2ccccc2)nc(N(C)CC(=O)N2CC(O)C2)c1C#N (centres unmarked)" property=EC50 experimental_result="< 316 nM"
